// data source = ChEMBL document CHEMBL1156450

- SYSTEM UNDER TEST: C-C chemokine receptor type 5 (Mus musculus)
- Sequence (P51682 whole entry): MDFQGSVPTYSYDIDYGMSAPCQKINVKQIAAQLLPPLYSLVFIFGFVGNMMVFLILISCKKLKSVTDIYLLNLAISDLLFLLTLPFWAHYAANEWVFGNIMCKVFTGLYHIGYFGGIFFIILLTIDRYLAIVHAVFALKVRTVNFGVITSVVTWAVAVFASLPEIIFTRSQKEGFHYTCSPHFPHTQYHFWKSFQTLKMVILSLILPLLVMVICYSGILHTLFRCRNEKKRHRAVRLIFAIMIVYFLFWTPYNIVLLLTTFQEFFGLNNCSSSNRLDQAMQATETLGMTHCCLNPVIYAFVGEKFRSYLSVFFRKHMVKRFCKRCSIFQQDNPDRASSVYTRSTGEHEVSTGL
- TEST: Binding affinity to CCR5 in C57BL/6J mouse brain membrane
- Assay type: cell membranes
PROPERTY NAME: Kd (nM)

C=CCN1CC[C@]23c4c5ccc(O)c4O[C@H]2C(=O)CC[C@@]3(O)[C@H]1C5; 20.8

###

- SYSTEM UNDER TEST: C-C chemokine receptor type 5 (Mus musculus)
- TEST: Binding affinity to CCR5 in NY1DD transgenic mouse brain membrane
- Assay type: tissue-based
pKd: −log10 of the molar value.
PROPERTY NAME: pKd

C=CCN1CC[C@]23c4c5ccc(O)c4O[C@H]2C(=O)CC[C@@]3(O)[C@H]1C5 [NALOXONE]; 7.98
